test-system: TNFα / TNFα receptor (TNFα R1/Fc) (Homo sapiens, UniProt P01375)
Construct: purchased R&D Systems
Sequence (P01375 77-233 limits assumed, species assumed): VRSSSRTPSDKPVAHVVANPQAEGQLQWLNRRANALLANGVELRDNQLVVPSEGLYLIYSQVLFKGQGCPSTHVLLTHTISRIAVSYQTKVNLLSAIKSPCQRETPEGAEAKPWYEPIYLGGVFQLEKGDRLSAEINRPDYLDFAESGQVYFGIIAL
procedure-summary: Inhibition of binding of TNFα to the TNFα receptor (plate ELISA competition)
details: Table 2; read-out: Activity (IC50, inhibition of TNFα binding to TNFα R1/Fc)
Numbered stars: 1 amine (or outer) side, 2 acyl side, 3 side chain; on linkers, the order of the positions; unused ones are H or OH. Bridge positions count the residues as written; N and C are the ends. Square brackets hold non-standard residues; d marks the D form. Peptide text beside a SMILES is read from it. Phe(4-COOH) = N[C@@H](Cc1ccc(C(=O)O)cc1)C(=O)O; Bip = N[C@@H](Cc1ccc(-c2ccccc2)cc1)C(=O)O; dPhe(4-NH2) = Nc1ccc(C[C@@H](N)C(=O)O)cc1; Phe(4-NH2) = Nc1ccc(C[C@H](N)C(=O)O)cc1; d(hPhe) = N[C@H](CCc1ccccc1)C(=O)O; 2Thi = N[C@@H](Cc1cccs1)C(=O)O; d2Thi = N[C@H](Cc1cccs1)C(=O)O; Suc = O=C(CCC(=O)[*:2])[*:1]; Inp = O=C(O)C1CCNCC1; GABA = NCCCC(=O)O; βAla = NCCC(=O)O
observable: IC50

Use the examples below as a reference point.
compound	IC50
O=C1COc2ccc(cc2)C[C@@H](C(=O)N[C@@H](Cc2ccccc2)C(=O)O)NC(=O)[C@H](Cc2ccccc2)NC(=O)[C@@H](Cc2ccc(-c3ccccc3)cc2)NC(=O)[C@H](Cc2cccs2)N1 [Compound 230]	10 to 30 µM
O=C1CCC(=O)N[C@@H](Cc2cccs2)C(=O)N[C@@H](Cc2ccc(-c3ccccc3)cc2)C(=O)N[C@@H](Cc2ccccc2)C(=O)N[C@@H](C(=O)O)Cc2ccc(cc2)N1 [Compound 502] ([2Thi][Bip]F[dPhe(4-NH2)]-OH; linker N-4 via Suc)	> 100 µM
O=C(O)[C@@H]1Cc2ccc(cc2)NC(=O)[C@H](O)[C@@H](O)C(=O)N[C@H](Cc2ccccc2Cl)C(=O)N[C@@H](Cc2ccc(-c3ccccc3)cc2)C(=O)N[C@H](Cc2ccccc2)C(=O)N1 [Compound 315]	10 to 30 µM

Ask: What value of IC50 has been reported for the following compound? O=C(O)[C@H](Cc1ccccc1)NC(=O)[C@@H]1Cc2ccc(cc2)NC(=O)[C@H](O)[C@@H](O)C(=O)N[C@H](Cc2cccs2)C(=O)N[C@@H](Cc2ccc(-c3ccccc3)cc2)C(=O)N[C@H](Cc2ccccc2)C(=O)N1 [Compound 174]
Result: < 10 µM

Ask: Repeat with O=C(O)[C@@H]1Cc2ccc(cc2)NC(=O)[C@H](O)[C@@H](O)C(=O)N[C@H](Cc2cccs2)C(=O)N[C@@H](Cc2ccc(-c3ccccc3)cc2)C(=O)N[C@H](Cc2ccc(Cl)cc2Cl)C(=O)N1 [Compound 287]
Result: 10 to 30 µM

Ask: Repeat with O=C1CCC(=O)N[C@H](CCc2ccccc2)C(=O)N[C@@H](Cc2ccc(C(F)(F)F)cc2)C(=O)N[C@H](Cc2ccccc2)C(=O)N[C@H](C(=O)O)Cc2ccc(cn2)N1 [Compound 548]
Result: 30 to 100 µM

Ask: Repeat with O=C1COc2ccc(cc2)C[C@H](C(=O)O)NC(=O)[C@H](Cc2c[nH]c3ccccc23)NC(=O)[C@@H](Cc2ccc(-c3ccccc3)cc2)NC(=O)[C@H](Cc2c[nH]c3ccccc23)N1 [Compound 731]
Result: 10 to 30 µM

Ask: Repeat with NCCCC(=O)N[C@H]1CC(=O)Nc2ccc(cc2)C[C@@H](C(=O)N[C@@H](Cc2ccccc2)C(=O)O)NC(=O)[C@@H](Cc2ccccc2)NC(=O)[C@H](Cc2ccc(-c3ccccc3)cc2)NC(=O)[C@@H](Cc2cccs2)NC1=O [Compound 529] (H-[GABA]D[d2Thi][Bip][dF][Phe(4-NH2)]F-OH; lactam 2-6)
Result: > 100 µM

Ask: Repeat with O=C1CCC(=O)N[C@H](Cc2cccs2)C(=O)N[C@@H](Cc2ccc(-c3ccccc3)cc2)C(=O)N[C@H](Cc2ccccc2)C(=O)N[C@H](C(=O)O)CCCCN1 [Compound 42] ([d2Thi][Bip][dF]K-OH; linker N-4 via Suc)
Result: > 100 µM

Ask: Repeat with O=C(O)CN(Cc1ccccc1)C(=O)[C@@H]1Cc2ccc(cc2)OCC(=O)N[C@@H](Cc2cccs2)C(=O)N[C@H](Cc2ccc(-c3ccccc3)cc2)C(=O)N[C@@H](Cc2ccccc2)C(=O)N1 [Compound 392]
Result: 10 to 30 µM

Ask: Repeat with O=C1CCC(=O)N[C@H](Cc2cccs2)C(=O)N[C@@H](Cc2ccc(-c3ccccc3)cc2)C(=O)N[C@H](Cc2ccccc2)C(=O)N[C@H](C(=O)N2CCC(C(=O)O)CC2)Cc2ccc(cc2)N1 [Compound 23] ([d2Thi][Bip][dF][Phe(4-NH2)][Inp]-OH; linker N-4 via Suc)
Result: > 100 µM

Ask: Repeat with O=C1COc2ccc(cc2)C[C@@H](C(=O)NCS(=O)(=O)O)NC(=O)[C@H](Cc2ccccc2F)NC(=O)[C@@H](Cc2ccc(-c3ccccc3)cc2)NC(=O)[C@H](Cc2cccs2)N1 [Compound 612]
Result: 10 to 30 µM

Ask: Repeat with COc1ccc(-c2ccc(C[C@@H]3NC(=O)[C@@H](CCc4ccccc4)NC(=O)CCC(=O)Nc4ccc(cc4)C[C@@H](C(=O)O)NC(=O)[C@@H](Cc4ccccc4)NC3=O)cc2)cc1 [Compound 168]
Result: 30 to 100 µM

Ask: Repeat with O=C1CCC(=O)N[C@H](CCc2ccccc2)C(=O)N[C@@H](Cc2ccc(-c3cccc(O)c3)cc2)C(=O)N[C@H](Cc2ccccc2)C(=O)N[C@H](C(=O)O)Cc2ccc(cc2)N1 [Compound 169]
Result: > 100 µM

Ask: Repeat with O=C1CNC(=O)c2ccc(cc2)C[C@@H](C(=O)O)NC(=O)[C@@H](Cc2ccccc2)NC(=O)[C@H](Cc2ccc(-c3ccccc3)cc2)NC(=O)[C@@H](CCc2ccccc2)N1 [Compound 247] (G[d(hPhe)][Bip][dF][Phe(4-COOH)]-OH; lactam N-5)
Result: > 100 µM

Ask: Repeat with O=C1COc2ccc(cc2)C[C@@H](C(=O)N[C@@H](Cc2ccccc2)C(=O)O)NC(=O)[C@H](Cc2ccccc2)NC(=O)[C@H](Cc2ccc(-c3ccccc3)cc2)NC(=O)[C@H](Cc2cccs2)N1 [Compound 229]
Result: < 10 µM

Ask: Repeat with O=C1CCNC(=O)c2ccc(cc2)C[C@@H](C(=O)N[C@H](Cc2ccccc2)C(=O)O)NC(=O)[C@@H](Cc2ccccc2)NC(=O)[C@H](Cc2ccc(-c3ccccc3)cc2)NC(=O)[C@@H](CCc2ccccc2)N1 [Compound 423] ([βAla][d(hPhe)][Bip][dF][Phe(4-COOH)][dF]-OH; lactam N-5)
Result: < 10 µM
